test_target: Rac1 activated by DH/PH domain of Guanine nucleotide Exchange Factor Tiam1 (Rac1/Tiam1) (Homo sapiens)
Construct: made in house; host or cells: E. coli BL21 Codon+RIL
test_protocol: Nucleotide binding assay: BODIPY-GTP binding to Rac1 activated by Tiam1 DH/PH
Assay type: biochemical
run_conditions: final concentration of 50 μM; Rac1/Tiam1; read-out: Rac1 % inhibition of BODIPY-GTP binding
Structures can show the parent of a compound that is named as a salt.
readout_label: inhibition at 50 µM (%)

>>> print(df.to_string())
                                   compound  measured
0  COc1cc2cc(-c3cccc(NC(C)=O)c3)nc(C)c2cc1OC [Compound 31, hydrochloride]        -1
1  COc1ccc2c(c1OC)C(Cc1ccccc1)N1CCc3cc4c(cc3C1=C2)OCO4 (stereo not shown)        -1
2  COc1cc2cc(-c3cccc(NS(C)(=O)=O)c3)nc(C)c2cc1OC [Compound 30, hydrochloride]         9
3             COc1cc2cnc(-c3ccccc3)cc2cc1OC         1
